measured_target: TGFβ1 (Homo sapiens, UniProt P01137 P01137:279-390)
Sequence (P01137 279-390, one chain of several): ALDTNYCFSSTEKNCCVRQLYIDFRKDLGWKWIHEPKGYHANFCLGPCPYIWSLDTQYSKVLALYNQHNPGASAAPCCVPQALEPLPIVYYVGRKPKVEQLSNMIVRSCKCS
procedure_details: filter; cell IC50 298 and 201 nM
assay_setup: tags: Genentech; biotinylated version used in bead assay; chain copies: 2
test_readout: pKd
Remember, pKd is on a log scale: it is -log10 of the molar concentration.

The value of pKd measured for the binder lib2-6-1-81 (ssRNA, 2'-NH2 U, 2'-F C) RNA: GGGGGAGAACGCGGAUCCUGUCUCCACCGCCGAUACUGGGGUUCCUGGGGCCCCUCCAUGCAGGAGGGGGGUGGUUCGGAG turned out to be 7.97

FYI, the data here is from patent US20030180744.
